# tgt: human GlyT1c transporter (Homo sapiens, UniProt P48067)
# Construct: expressed in transfected cells; host or cells: CHO cells (recombinant; line hGlyT1c_5_CHO is named for the uptake assay)
# Sequence (P48067 whole entry): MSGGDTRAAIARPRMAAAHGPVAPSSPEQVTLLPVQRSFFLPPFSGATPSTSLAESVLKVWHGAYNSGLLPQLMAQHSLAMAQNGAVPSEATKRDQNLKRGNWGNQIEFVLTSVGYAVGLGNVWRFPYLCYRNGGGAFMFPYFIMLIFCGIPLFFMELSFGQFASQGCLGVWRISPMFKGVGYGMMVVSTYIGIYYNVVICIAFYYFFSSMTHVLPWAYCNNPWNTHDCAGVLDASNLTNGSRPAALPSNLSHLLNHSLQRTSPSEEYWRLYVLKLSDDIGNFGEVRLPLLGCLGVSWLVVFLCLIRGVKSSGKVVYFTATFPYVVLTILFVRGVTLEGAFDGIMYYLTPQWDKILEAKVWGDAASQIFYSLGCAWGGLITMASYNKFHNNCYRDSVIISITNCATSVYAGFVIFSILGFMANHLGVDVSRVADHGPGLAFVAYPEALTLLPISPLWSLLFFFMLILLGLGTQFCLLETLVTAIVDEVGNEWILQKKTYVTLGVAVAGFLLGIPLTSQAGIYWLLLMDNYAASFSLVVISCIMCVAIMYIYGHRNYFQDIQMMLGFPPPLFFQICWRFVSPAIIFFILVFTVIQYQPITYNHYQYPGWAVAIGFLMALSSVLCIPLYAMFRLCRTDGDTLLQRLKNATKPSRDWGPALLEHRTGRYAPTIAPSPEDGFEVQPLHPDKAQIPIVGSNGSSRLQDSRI
# methodDescription: Radioligand binding assay using recombinant CHO cell membranes expressing human GlyT1
# studyConditions: radioligand binding to human GlyT1c transporter-expressing membranes
# key: entry, value: Ki

Illustrative cases are given below, each with its answer.
>  <compound>
Cn1cnc(S(=O)(=O)N2C[C@@H](Nc3cccc(Cl)c3)[C@H](OCc3ccccc3)C2)c1 (relative stereo) [Example 400]

>  <Ki>
≤ 10000 nM

$$$$
>  <compound>
Cn1cnc(S(=O)(=O)N2C[C@@H](Nc3ccc(C(F)(F)F)cc3)[C@H](c3ccccc3Cl)C2)c1 (relative stereo) [Example 256]

>  <Ki>
≤ 1000 nM

$$$$
>  <compound>
Cc1ccc2sc(CN[C@H]3CN(S(=O)(=O)c4cn(C)cn4)C[C@@H]3c3ccccc3)cc2c1 [Example 437]

>  <Ki>
≤ 100 nM

$$$$
>  <compound>
Cn1cnc(S(=O)(=O)N2C[C@H](Nc3cnc(N4CCCC4)cn3)[C@@H](c3ccccc3)C2)c1 [Example 413]

>  <Ki>
≤ 10000 nM

$$$$
>  <compound>
Cn1cnc(S(=O)(=O)N2C[C@@H](Nc3ccc(F)c(OC(F)(F)F)c3)[C@H](C3CCCCO3)C2)c1 (stereo partly shown) [Example 741]

>  <Ki>
≤ 100 nM

$$$$
>  <compound>
Cn1cnc(S(=O)(=O)N2C[C@@H](OCc3cccc(S(C)(=O)=O)c3)[C@H](c3ccc(F)cc3)C2)c1 (relative stereo) [Example 714]

>  <Ki>
≤ 10000 nM

$$$$

Value wanted: Ki (human GlyT1c transporter (Homo sapiens, UniProt P48067)) of entry Cn1cnc(S(=O)(=O)N2C[C@@H](C(=O)NCc3ccc(F)c(F)c3)[C@H](c3ccc(F)cc3)C2)c1 (relative stereo) [Example 631] ≤ 10 nM
